Data provenance: PubChem BioAssay (NCI)

Tested on: A549 NSCLC
experimentalProtocol: NCI tumour cell line growth inhibition, 48 h
readoutKind: TGI

Q: // lookup TGI for CC(C)(CCCCC(C)(C)NCC1COc2ccccc2O1)NCC1COc2ccccc2O1 (stereo not drawn)
Ans: > 10 µM

Q: Ok, now O=C(O)CNCc1c2ccccc2[n+]([O-])c2ccccc12
Ans: > 100 µM

Q: Ok, now CSc1ccc(-c2cc(-c3nc4ccccc4[nH]3)nc3[nH]c(-c4nc5ccccc5[nH]4)cc(=O)c23)cc1
Ans: > 100 µM

====

Would you mind telling me the reported TGI of each entry?
Tested on: CAKI-1 renal
experimentalProtocol: NCI tumour cell line growth inhibition, 48 h

Q: // lookup TGI for O=C(O)c1cccc(CC(Br)C(=O)O)c1 (stereo not drawn)
Ans: > 100 µM

Q: Ok, now COC(=O)N/N=C(\C)C(CN1CCOCC1)C(c1ccccc1)c1cc2ccccc2oc1=O (stereo not drawn)
Ans: > 100 µM

Q: Ok, now Cc1ccccc1NC(=O)/C(C#N)=N\Nc1nc[nH]c1C(N)=O
Ans: 18.2 µM

Q: Ok, now O=Cc1ccc2c(c1)CC1(C2)Cc2ccc(C=O)cc2C1
Ans: > 100 µM

Q: Ok, now CC/C(=C(\CC)c1ccc(OCCN(CC)CC)cc1)c1ccc(OCCN(CC)CC)cc1
Ans: 15.7 µM

Q: Ok, now O=S1(=O)OCCCOS(=O)(=O)C1Br
Ans: > 100 µM

Q: Ok, now C[C@@H]1OC2(O)[C@@H]3CCCN3C(=O)N(Cc3ccccc3)N2C1=O (stereo partly drawn)
Ans: > 100 µM

Q: Ok, now CCOC(=O)/C=C1\Nc2ccccc2-n2nnnc21
Ans: > 100 µM

====

System: SNB-19 CNS
experimentalProtocol: NCI tumour cell line growth inhibition, 48 h
readoutKind: TGI

Q: // lookup TGI for O=C(NCC#CCO)C(F)(F)F
Ans: > 100 µM

Q: Ok, now O=C(NN1C(=O)c2ccccc2C1=O)c1ccccc1Nc1ccccc1C(=O)NN1C(=O)c2ccccc2C1=O
Ans: > 100 µM

Q: Ok, now C/C(=C\c1c[nH]c2ccccc12)[N+](=O)[O-]
Ans: 20 µM

Q: Ok, now C#C[C@]1(O)CC[C@H]2[C@@H]3CCC4=C/C(=N\OCCN5CCCC5)CC[C@]4(C)[C@H]3CC[C@@]21C
Ans: 32.2 µM

Q: Ok, now COC(=O)C(Cc1c[nH]c2ccccc12)NP(=O)(O)OCC1OC(n2cc(F)c(=O)[nH]c2=O)CC1O (configuration not stated)
Ans: > 100 µM

Q: Ok, now COc1cc(C(=O)n2nc(N3CCN(C)CC3)c3cc(N)ccc32)cc(OC)c1OC
Ans: > 100 µM

Q: Ok, now COc1ccccc1NC(=O)C1=C(C)NC(C)=C(C(=O)Nc2ccccc2OC)C1c1ccccc1OC
Ans: > 100 µM

====

Would you mind telling me the reported TGI of each entry?
System: ACHN renal
experimentalProtocol: NCI tumour cell line growth inhibition, 48 h

Q: // lookup TGI for NC(=O)NC(=O)c1ccc(NC(=O)CBr)cc1
Ans: 2.91 µM

Q: Ok, now Cc1nc2ccc(N=NN(C)C)cc2[nH]1
Ans: > 100 µM

Q: Ok, now C[C@]12CCC(=O)C=C1CC[C@@H]1[C@@H]2CC[C@]2(C)C(=O)/C(=C/c3cccc(OCCN4CCOCC4)c3)C[C@@H]12
Ans: > 100 µM

Q: Ok, now COc1ccc(Nc2ccnc(NCCCNc3ccnc4cc(Cl)ccc34)n2)cc1
Ans: 2.42 µM

Q: Ok, now COc1c(O)cc2c(c1O)C1O[C@H](CO)C(O)[C@H](O)[C@H]1OC2=O (some centres not stated)
Ans: > 100 µM

Q: Ok, now Nc1nccc(Nc2ccc(S(N)(=O)=O)cc2)n1
Ans: > 100 µM

Q: Ok, now c1ccc2cc(Cn3c(-c4ccc5ccccc5c4)[n+](Cc4ccc5ccccc5c4)c4ccccc43)ccc2c1
Ans: 2.04 µM

Q: Ok, now O=C(O)CNCc1c2ccccc2[n+]([O-])c2ccccc12
Ans: > 100 µM

Q: Ok, now O=C(O)CCSc1nnc(COc2ccc(Cl)cc2)n1-c1ccccc1
Ans: > 100 µM

Q: Ok, now CN1CCN(Cc2ccc(NC(=O)c3cncc(C#Cc4c(N)ncc5cc(F)ccc45)c3)cc2C(F)(F)F)CC1
Ans: 8.84 µM

Q: Ok, now COC(=O)N/N=C(\C)C(CN1CCOCC1)C(c1ccccc1)c1cc2ccccc2oc1=O (configuration not stated)
Ans: > 100 µM

Q: Ok, now CO[C@H](c1ccccc1)[C@H](O)[C@](O)(c1ccccc1)P(=O)(OC)OC
Ans: > 100 µM

Q: Ok, now CC(C)(C)C(=O)Nc1cccc(-c2ccc[nH]2)n1
Ans: > 100 µM

Q: Ok, now COc1ccc(NC(C)=O)cc1N1C(=O)/C(=C\c2cc(OC)c(OC)c(OC)c2)S(=O)(=O)C1c1ccccc1 (configuration not stated)
Ans: > 100 µM

Q: Ok, now COc1ccc(-c2nc(-c3nc4cc(C)c(C)cc4[nH]3)cc3c2[nH]c2ccccc23)cc1
Ans: 27.9 µM

Q: Ok, now O=C1NC(Cc2c[nH]c3ccccc23)C(=O)N2C(c3ccccc3)c3[nH]c4ccccc4c3C[C@@H]12 (some centres not stated)
Ans: 89.2 µM

Q: Ok, now COc1cc(C2S/C(=C/c3ccccc3)C(=O)N2c2ccc([N+](=O)[O-])cc2)cc(OC)c1OC (configuration not stated)
Ans: > 100 µM

====

System: KM12 colon
experimentalProtocol: NCI tumour cell line growth inhibition, 48 h
readoutKind: TGI

Q: Given the entry C=C[C@]1(C)C=C2C(=O)[C@@]3(O)OC(=O)[C@@]4(CCCC(C)(C)[C@H]34)[C@@]2(O)CC1 , what TGI was observed with KM12 colon?
Ans: 13.8 µM

Q: Ok, now COC(=O)/C=C(\S/C(=C(/c1ccc(OC)cc1)n1cc(C(=O)OC)c(C(=O)OC)n1)c1ccc(OC)cc1)C(=O)OC
Ans: > 100 µM

Q: Ok, now O=C(CC(=O)C(F)(F)F)c1csc2ccccc12
Ans: > 100 µM

====

Tested on: SF-268 CNS
experimentalProtocol: NCI tumour cell line growth inhibition, 48 h
readoutKind: TGI

Q: // lookup TGI for O=C(/C=C\c1ccccc1-c1ccccc1)c1ccccc1
Ans: > 100 µM

Q: Ok, now COc1cc(/C=C2\N=C(c3ccccc3)N(/N=C/c3cc4cc(C)ccc4nc3Cl)C2=O)cc(OC)c1OC
Ans: > 100 µM

Q: Ok, now COc1cc(-c2nc3ccccc3s2)ccc1OCc1nc2n(n1)S(=O)(=O)c1ccccc1N2C
Ans: > 100 µM

Q: Ok, now COc1ccc(Nc2ccnc(NCCCNc3ccnc4cc(Cl)ccc34)n2)cc1
Ans: 3.77 µM

Q: Ok, now CCCCCCCCCCCCCCCCOCCCOP(=O)(O)C1CCCN(O)C1=O (stereo unspecified)
Ans: 11.7 µM

Q: Ok, now CCN(CC)CCOc1cc2c(C(=O)OC)c(C)oc2cc1C(C)=O
Ans: 32.6 µM

Q: Ok, now C/C(=N/NC(=S)N1CCCC1)c1cccc(/C(C)=N\NC(=S)N2CCCC2)n1
Ans: 14.7 µM

Q: Ok, now C[C@H](CCC1=NCCN1)[C@H]1CC[C@H]2[C@@H]3CC[C@@H]4C[C@H](O)CC[C@]4(C)[C@H]3CC[C@]12C
Ans: 34.3 µM

Q: Ok, now O=S1c2ccc(Cl)cc2CC(SSC2Cc3cc(Cl)ccc3S(=O)c3ccccc32)c2ccccc21 (stereo unspecified)
Ans: > 100 µM

Q: Ok, now CSc1sc(=S)sc1SC
Ans: > 100 µM

Q: Ok, now CC1(C)OC(=O)CC12CCN(Cc1ccccc1)CC2
Ans: > 100 µM

Q: Ok, now Cc1ccc2sc3c(NCCCNCCO)nc4ccccc4c3c(=O)c2c1
Ans: 3.2 µM

Q: Ok, now O=C1CCSc2c(cnc3ccccc23)N1
Ans: > 100 µM

Q: Ok, now O=C(C=Nc1ccccc1C(=O)[O-])c1cccs1.O=C(C=Nc1ccccc1C(=O)[O-])c1cccs1.[Cu+2]
Ans: > 100 µM

Q: Ok, now O=C(/C=C/c1cccs1)c1ccc(C(=O)/C=C/c2cccs2)cc1
Ans: > 100 µM

Q: Ok, now CC[C@H](C)C(=O)O[C@H]1CCC=C2C=C[C@H](C)C(CCC3C[C@@H](O)CC(=O)O3)[C@H]21 (stereo partly specified)
Ans: > 100 µM

Q: Ok, now CC(CCC(=O)O)[C@H]1CCC2[C@H]3C(CC(=O)[C@@]21C)[C@@]1(C)CCC(O)C[C@H]1C[C@@H]3O (stereo partly specified)
Ans: > 100 µM

Q: Ok, now O=C(O)CCC1CCC(c2cc(F)ccc2F)(S(=O)(=O)c2ccc(Cl)cc2)CC1 (stereo unspecified)
Ans: > 100 µM

Q: Ok, now NC(=S)N/N=C(/C(=O)Nc1nc2ccc([N+](=O)[O-])cc2s1)C1C(=O)NC(=S)NC1=O
Ans: > 100 µM

Q: Ok, now Cc1c(Cl)ccc2c1NC(=O)C2(O)C1Cc2ccccc2C1=O (stereo unspecified)
Ans: > 100 µM

Q: Ok, now COC(=O)C(=O)C(C(=O)C(=O)Nc1cc([N+](=O)[O-])ccc1[N+](=O)[O-])c1nc2ccc(C(=O)c3ccccc3)cc2[nH]c1=O (stereo unspecified)
Ans: > 100 µM

Q: Ok, now CCN(CC)c1ccc2c(c1)N=C1N=CC=CN1C2(c1ccc(N(C)C)cc1)c1ccc(N(C)C)cc1
Ans: 27.3 µM

Q: Ok, now CCOC(=O)/C=C1\Nc2ccccc2-n2nnnc21
Ans: > 100 µM

Q: Ok, now O=Cc1ccc2c(c1)CC1(C2)Cc2ccc(C=O)cc2C1
Ans: 44.6 µM

Q: Ok, now O=C(NCC#CCO)C(F)(F)F
Ans: > 100 µM

Q: Ok, now CC(=O)Nc1ccc(/C=C/C(=O)c2sc(C(N)=S)nc2C)cc1
Ans: > 100 µM
